- Read-out: Broad substrate specificity ATP-binding cassette transporter ABCG2 (Homo sapiens)
- methodNotes: CLD_ABCG2_6hr: CellzDirect (CLD) Gene Expression Assay for ABC Transporter (ABCG2) at 6 hours (AID 2283660)
- Description: CLD_6hr is a cell-based, multiplexed-readout assay that uses hepatocyte, a human liver primary cell, with measurements taken at 6 hours after chemical dosing in a 96-well plate.CLD_ABCG2_6hr is one of 16 assay component(s) measured or calculated from the CLD_6hr assay. […] Furthermore, this assay endpoint can be referred to as a primary readout. […]
Inconclusive results are not listed. Activity calls are given as the source filed them. The calls were made as follows: active = hit-call score of the fitted dose curve at least 0.9, where 1 is the maximum; inconclusive = response in the unintended direction; inactive = score below 0.9.
Labels: 1 (yes) for active, 0 (no) for inactive

>>> assignedlabel("CCC(C)(NC(=O)c1cc(Cl)c(C)c(Cl)c1)C(=O)CCl (stereo not drawn)")
"0 (no)"
>>> assignedlabel("CC(C)N(C(=O)COc1nnc(C(F)(F)F)s1)c1ccc(F)cc1")
"0 (no)"
>>> assignedlabel("Oc1ccc(Cl)cc1Cc1ccccc1")
"0 (no)"
>>> assignedlabel("ClC1C(Cl)C(Cl)C(Cl)C(Cl)C1Cl (stereo not drawn)")
"0 (no)"
>>> assignedlabel("O=S1OCC2C(CO1)C1(Cl)C(Cl)=C(Cl)C2(Cl)C1(Cl)Cl (stereo not drawn)")
"0 (no)"
>>> assignedlabel("CNC(=O)/C=C(\\C)OP(=O)(OC)OC")
"0 (no)"
>>> assignedlabel("CCC(C)Nc1c([N+](=O)[O-])cc(C(C)(C)C)cc1[N+](=O)[O-] (stereo not drawn)")
"0 (no)"
>>> assignedlabel("COC(=O)c1ccccc1S(=O)(=O)NC(=O)N(C)c1nc(C)nc(OC)n1")
"0 (no)"
>>> assignedlabel("Clc1ccccc1-c1nnc(-c2ccccc2Cl)nn1")
"0 (no)"
>>> assignedlabel("CC(C)OC(=O)Nc1cccc(Cl)c1")
"0 (no)"
>>> assignedlabel("O=[N+]([O-])c1c(Cl)c(Cl)c(Cl)c(Cl)c1Cl")
"0 (no)"
>>> assignedlabel("CC1(c2ccc(Oc3ccccc3)cc2)OC(=O)N(Nc2ccccc2)C1=O (stereo not drawn)")
"0 (no)"
>>> assignedlabel("O=C1c2ccccc2C(=O)N1SC(Cl)(Cl)Cl")
"0 (no)"
>>> assignedlabel("CC(C)(C)C(O)C(Oc1ccc(Cl)cc1)n1cncn1 (stereo not drawn)")
"0 (no)"
>>> assignedlabel("CNC(=O)Oc1ccccc1OC(C)C")
"0 (no)"
>>> assignedlabel("CNC(=O)Oc1cccc(N=CN(C)C)c1")
"0 (no)"
>>> assignedlabel("O=C(O)C(F)(F)C(F)(F)C(F)(F)C(F)(F)C(F)(F)C(F)(F)C(F)(F)F")
"0 (no)"
>>> assignedlabel("COP(=O)(OC)OC=C(Cl)Cl")
"0 (no)"
>>> assignedlabel("CCC(C)(C)C(=O)OC1=C(c2ccc(Cl)cc2Cl)C(=O)OC12CCCCC2")
"0 (no)"
>>> assignedlabel("N#Cc1c(Cl)c(Cl)c(Cl)c(C#N)c1Cl")
"1 (yes)"
>>> assignedlabel("N#CN")
"0 (no)"
>>> assignedlabel("OCCOc1ccccc1")
"0 (no)"
>>> assignedlabel("COC(=O)c1ccccc1CS(=O)(=O)NC(=O)Nc1nc(OC)cc(OC)n1")
"0 (no)"

* * *

- systemName: Cytochrome P450 2C18 (Homo sapiens)
- methodNotes: NVS_ADME_hCYP2C18: NovaScreen (NVS) CYP450-related Enzyme Activity (ADME) Assay for human CYP2C18 (AID 2283103)
Active and inactive are the calls of the source. How the source made its calls: active means hit-call score of the fitted dose curve at least 0.9, where 1 is the maximum; inactive means score below 0.9.
Classes used: YES = active, NO = inactive

>>> assignedlabel("CN1CSC(=S)N(C)C1")
"YES"
>>> assignedlabel("COc1nn(CSP(=S)(OC)OC)c(=O)s1")
"YES"
>>> assignedlabel("O=C(O)C(F)(F)C(F)(F)C(F)(F)C(F)(F)C(F)(F)C(F)(F)C(F)(F)F")
"NO"
>>> assignedlabel("CCCN(CCOc1c(Cl)cc(Cl)cc1Cl)C(=O)n1ccnc1")
"YES"
>>> assignedlabel("CC(C)N(C(=O)COc1nnc(C(F)(F)F)s1)c1ccc(F)cc1")
"YES"
>>> assignedlabel("CCOC1Oc2ccc(OS(C)(=O)=O)cc2C1(C)C (stereo unspecified)")
"YES"
